Data origin: PubChem BioAssay AID588830

Please provide measured activity change, negative = cytotoxicity for the entries that follow.
Experiment: short-term cytotoxicity in ldlA[mSR-BI] cells, dose response, cytotoxicity control for SR-BI HDL uptake inhibitor project, cell-based, CellTiter-Glo luminescence, 3 h, dry powder (AID 588830)
Settings: ldlA[mSR-BI] CHO cells viability, CellTiter-Glo ATP, 3 h; at 35 µM (top of the series)
Write the number in % without appending the unit.

Supply activity change, negative = cytotoxicity value. Item: C[C@@H]1CN([C@@H](C)CO)C(=O)c2cc(NC(=O)Cc3cn(C)c4ccccc34)ccc2O[C@H]1CN(C)S(=O)(=O)c1ccc(F)cc1
-8.52

// fetch activity change, negative = cytotoxicity given entry CCn1c(COc2c(C)cccc2C)nnc1SCC(=O)N1CCN(c2ccccc2)CC1
-9.72

Output measured activity change, negative = cytotoxicity for this item: C[C@H](CO)N1C[C@H](C)[C@H](CN(C)S(=O)(=O)c2ccc(F)cc2)Oc2ccc(NC(=O)CCC(F)(F)F)cc2C1=O
-1.99

Using the record for C[C@@H]1CN([C@H](C)CO)C(=O)Cc2cc(NC(=O)Cc3cn(C)c4ccccc34)ccc2O[C@H]1CN(C)S(=O)(=O)c1ccc(F)cc1 , state its measured activity change, negative = cytotoxicity.
1.4

Identify measured activity change, negative = cytotoxicity associated with Nc1ccc(C(=O)Nc2ccc(-c3nc4ccc(NC(=O)c5ccc(N)cc5)cc4[nH]3)cc2)cc1
7.17

Output measured activity change, negative = cytotoxicity for this item: CC(C)NC(=O)Nc1cccc2c1O[C@H](CN(C)Cc1ccc(Cl)c(Cl)c1)[C@@H](C)CN([C@@H](C)CO)C2=O
3.31

Quote activity change, negative = cytotoxicity reported for CCOC(=O)Nc1cccc(NC(=O)c2cc(OC)cc(OC)c2)c1 please.
-7.68

Consider the molecule O=C(Nc1ccc(-c2nc3cc(NC(=O)c4ccc(NC(=O)c5cccc6ccccc56)cc4)ccc3[nH]2)cc1)c1ccc(NC(=O)c2cccc3ccccc23)cc1 . State its measured activity change, negative = cytotoxicity.
2.1

Answer with the recorded activity change, negative = cytotoxicity for the molecule listed here: Cc1ccccc1NC(=O)NCC1CCN(c2ccc(S(=O)(=O)N3CCOCC3)cc2)CC1
-8.7

Input C[C@H](CO)N1C[C@H](C)[C@H](CN(C)S(=O)(=O)c2ccc(F)cc2)Oc2ccc(NS(C)(=O)=O)cc2C1=O , output reported activity change, negative = cytotoxicity.
-6.43

Return the recorded activity change, negative = cytotoxicity value; entry: N#Cc1sc2nc(C3CC3)cc(-c3ccc(Cl)cc3)c2c1N
-7.15

Please list activity change, negative = cytotoxicity recorded for the molecule C[C@H](CO)N1C[C@H](C)[C@H](CN(C)S(=O)(=O)c2ccc(F)cc2)Oc2ccc(NC(=O)Cc3cn(C)c4ccccc34)cc2C1=O
-10

Identify measured activity change, negative = cytotoxicity associated with CNC[C@@H]1Oc2ccc(NC(=O)Cc3cn(C)c4ccccc34)cc2C(=O)N([C@H](C)CO)C[C@H]1C
-4.04

Entry C[C@H]1CN([C@@H](C)CO)C(=O)c2cccc(NC(=O)Nc3ccccc3)c2O[C@@H]1CN(C)S(C)(=O)=O needs its activity change, negative = cytotoxicity filled in; supply it.
-1.01

In one line, give reported activity change, negative = cytotoxicity of the entry CCOC(=O)N1CCC(NC(=O)c2ccc3c(c2)N(Cc2ccc(F)cc2)CCS3)CC1 .
-4.76

Give activity change, negative = cytotoxicity for CCc1cc2cc3c(cc2nc1SCC(=O)OC(C)C)OCO3
-2

Return reported activity change, negative = cytotoxicity. Input molecule: C[C@@H]1CN([C@H](C)CO)C(=O)c2cc(NC(=O)Cc3cn(C)c4ccccc34)ccc2O[C@H]1CN(C)S(=O)(=O)c1ccc(Cl)cc1
-0.219

Look up and report measured activity change, negative = cytotoxicity for this entry: O=C(Nc1ccc(-c2nc3cc(NC(=O)c4ccccc4Cl)ccc3o2)cc1)c1ccccc1Cl
11.9

Tell us which activity change, negative = cytotoxicity value is on record for C[C@H]1CN([C@@H](C)CO)C(=O)c2cc(NC(=O)Cc3cn(C)c4ccccc34)ccc2O[C@@H]1CN(C)S(=O)(=O)c1ccc(F)cc1
1.18

Specify activity change, negative = cytotoxicity for O=C(Nc1ccccc1)c1ccccc1NS(=O)(=O)c1ccc(Cl)cc1 and stop.
-7.39

Answer with reported activity change, negative = cytotoxicity of Cc1cc(SC(C)C(=O)Nc2ncc(Cl)cc2Cl)nc2ccccc12 (stereo not drawn)
-10.7

For the molecule O=C(Nc1ccc(-c2nc3cc(NC(=O)c4ccccc4[N+](=O)[O-])ccc3o2)cc1)c1ccccc1[N+](=O)[O-] , give its reported activity change, negative = cytotoxicity.
1.25

Give recorded activity change, negative = cytotoxicity. O=C(Nc1cc(Cl)ccc1Cl)c1cc(Br)ccc1NS(=O)(=O)c1ccc(Cl)c([N+](=O)[O-])c1
-11.2

* * *

Experiment: short-term cytotoxicity in ldlA[mSR-BI] cells, dose response, cytotoxicity control for SR-BI HDL uptake inhibitor project, cell-based, CellTiter-Glo luminescence, 3 h, dry powder (AID 588830)
Conditions: ldlA[mSR-BI] CHO cells viability, CellTiter-Glo ATP, 3 h; at 35 µM (top of the series)
Give activity change, negative = cytotoxicity for every item shown.
Numeric answer only, unit % assumed.

Specify activity change, negative = cytotoxicity for C[C@@H]1CN([C@H](C)CO)C(=O)c2cc(NC(=O)Cc3cn(C)c4ccccc34)ccc2O[C@H]1CN(C)C(=O)Nc1ccc(F)cc1 and stop.
4.57

Hello, please tell me recorded activity change, negative = cytotoxicity for this one: C[C@@H]1CN([C@H](C)CO)C(=O)c2cc(NC(=O)Cc3cn(C)c4ccccc34)ccc2O[C@H]1CN(C)S(C)(=O)=O
3.58

Return the recorded activity change, negative = cytotoxicity value; entry: O=C(Nc1ccc(-c2nc3ccc(NC(=O)c4ccc(Cl)cc4)cc3[nH]2)cc1)c1ccc(Cl)cc1
3.4

Please indicate activity change, negative = cytotoxicity recorded for O=C(Nc1ccc(Cl)cc1C(=O)c1ccc(Cl)cc1)c1cc(Br)ccc1NS(=O)(=O)c1ccc(Cl)cc1
-10

Please give the documented activity change, negative = cytotoxicity of C[C@H](CO)N1C[C@H](C)[C@H](CN(C)S(=O)(=O)c2ccc(F)cc2)Oc2ccc(NC(=O)Cc3ccccc3)cc2C1=O
-1.65

Supply reported activity change, negative = cytotoxicity belonging to this molecule: CCc1sc(N2C(=O)C3C4CCC(C4=C(C)C)C3C2=O)nc1-c1ccccc1 (centres undefined)
-2.48

Dear colleague, please send me the reported activity change, negative = cytotoxicity for CCC(=O)N1CCc2cc(-c3csc(NC(=O)c4ccco4)n3)ccc21 when you can.
-8.77

Please give measured activity change, negative = cytotoxicity of the following entry: Cc1cc(C)n(CC(=O)NC2CCCc3c2cnn3-c2ccc(C)c(C)c2)n1 (centres undefined)
-4.16

For the molecule Cc1cc(C)c2c(c1)NC(c1cc3c(cc1Br)OCO3)C1CC=CC21 (centres undefined) , give its measured activity change, negative = cytotoxicity value.
-9.46
